Tested on: Escherichia coli β7340 Δdeo tdk cdd::Tn10 (dckH wt, amkG wt)
method.summary: microbe, parasite or virus in culture
Format: cell-based
condition.context: strain β7340, dckH wt, amkG wt
result.type: minimum inhibitory concentration (MIC)

Need minimum inhibitory concentration (MIC), item NNc1ccn([C@H]2C[C@H](O)[C@@H](CO)O2)c(=O)n1
80 µM
